- System: SF-539 CNS
- method.summary: NCI tumour cell line growth inhibition, 48 h
Entries and their TGI values follow.
value.kind: TGI (µM)

INSERT INTO measurements (compound, value_kind, censor_symbol, reported_measurement) VALUES
  ('CCC1CN2CCc3cc(OC)c(OC)cc3C2CC1CC1c2cc(OC)c(OC)cc2CCN1C(=O)C(N)Cc1ccccc1 (stereo not given)', 'TGI', '=', 7.48),
  ('Nc1cc(Cl)cc2cc(Cl)cnc12', 'TGI', '>', 100),
  ('CCN(CCCl)c1cc(CN(C)C)cc(NC(=O)c2ccc(C(=O)Nc3cc(CN(C)C)cc(N(CC)CCCl)c3)cc2)c1', 'TGI', '=', 0.815),
  ('CCC#CC[C@H]1C/C=C2/C(=O)C=C[C@@H]2C/C=C\CCCC(=O)O1', 'TGI', '=', 7.67),
  ('CCN(CC)C(=O)c1cc(OC(C)C)ccc1-c1c(C)cc(OC(C)C)c(OC)c1OC', 'TGI', '>', 100),
  ('O=c1[nH]c2cccc([N+](=O)[O-])c2c(=O)n1-c1ccc(Cl)cc1', 'TGI', '=', 26.2),
  ('C[N+]12CCCCC1C(COc1cccc3cccnc13)CCC2 (stereo not given)', 'TGI', '>', 100),
  ('CCOC1=NC(=O)CC(c2ccccc2)S1 (stereo not given)', 'TGI', '>', 100),
  ('COC(=O)Nc1nc2ccc(Oc3ccc(NC(=O)Nc4ccccc4)cc3)cc2[nH]1', 'TGI', '=', 0.878),
  ('[O-][n+]1nc(N2CCOCC2)nc2ccccc21', 'TGI', '>', 100);

====

- Tested on: OVCAR-4 ovarian
- method.summary: NCI tumour cell line growth inhibition, 48 h; in the data active = GI50 below about 0.43 µM; inactive = the rest
Possible outcomes: True = active, False = inactive

INSERT INTO assay_data (compound, discrete_label) VALUES
  ('COc1cc(OC)c(/C=C/C(=O)c2c(OC)cccc2OC)c(OC)c1', 'False'),
  ('CC(=O)OC1Oc2ccccc2-c2oc(=O)c(-c3cc4ccc(N(C)C)cc4oc3=O)cc21 (stereo unspecified)', 'False'),
  ('CC(C)c1ccc(C(=O)Nc2sc3c(c2C(N)=O)CCC(=O)C3)cc1', 'True'),
  ('COc1ccc2c(c1)C(=O)c1c-2n(CCCn2ccnc2)c(=O)c2ccccc12', 'False'),
  ('CCN(CC)c1ccc(C(=N)c2ccc(N(CC)CC)cc2)cc1', 'False'),
  ('CC1CN1CC(O)C(O)CN1CC1C (stereo unspecified)', 'False');

====

- System: HCT-116 colon
- method.summary: NCI tumour cell line growth inhibition, 48 h
Entries and their TGI values follow.
value.kind: TGI

INSERT INTO assay_data (compound, value_kind, reported_measurement) VALUES
  ('O=c1[nH]c2cccc([N+](=O)[O-])c2c(=O)n1-c1ccc(Cl)cc1', 'TGI', '61.7 µM'),
  ('COc1c2c(cc3nc4ccccc4nc13)CCC(C(C)(C)O)C2 (stereo not given)', 'TGI', '> 100 µM'),
  ('Cc1ccc(C(=NN=C(N)N)c2ccc(C)cc2)cc1', 'TGI', '4.48 µM'),
  ('CCN(CCCl)c1cc(CN(C)C)cc(NC(=O)c2ccc(C(=O)Nc3cc(CN(C)C)cc(N(CC)CCCl)c3)cc2)c1', 'TGI', '1.06 µM'),
  ('CCc1[nH]c(=O)nc(N)c1-c1ccc(N2CCCCC2)c([N+](=O)[O-])c1', 'TGI', '> 100 µM'),
  ('COC(=O)c1ccccc1/C=C1\Cc2c(ccc3c2CCC3)C1=O', 'TGI', '> 100 µM'),
  ('CC(C)=CCc1c(O)cc(O)c2c1OC(c1ccc(O)cc1)C(O)C2=O (stereo not given)', 'TGI', '> 100 µM'),
  ('CC1=NN(c2ccccc2)C2(C1)C(Cl)C(=O)N2c1nc2ccccc2s1 (stereo not given)', 'TGI', '51.5 µM'),
  ('COC(=O)c1cccc2cccc(C(=O)Nc3ccc(C)cc3C)c12', 'TGI', '> 100 µM'),
  ('CN(C)P(=O)(/C(N)=N/Nc1ccc([N+](=O)[O-])cc1)N(C)C', 'TGI', '> 100 µM');

Source listed as PubChem BioAssay (NCI).
